Data provenance is patent US20200031778A1.

Item-by-item account of LogP
- procedure details: Log P by HPLC on reversed phase columns (EEC directive 79/831 Annex V.A8; methods [a], [b], [c])
- Format: physicochemical

In: Using the record for CC(O)(Cn1cncc1Br)c1ccc(Oc2ccc(Cl)cc2)cc1F (stereo not shown) , state its measured LogP.
Out: 2.44^[a]

In: Using the record for Cc1ccc(C(C)(O)Cn2cncc2C#N)cc1 (stereo not shown) , state its measured LogP.
Out: 1.75^[a]

In: Using the record for N#Cc1cncn1CC(O)c1ccc(F)cc1 (stereo not shown) , state its measured LogP.
Out: 1.37^[a]

In: Using the record for CCCCCCC(O)(CC1CC1)Cn1cncc1C#N (stereo not shown) , state its measured LogP.
Out: 3.35^[a]

In: Using the record for N#Cc1cncn1CC(O)c1ccc(Oc2ccc(C(F)(F)F)cc2)nc1 (stereo not shown) , state its measured LogP.
Out: 2.55^[a]

In: Using the record for Cc1ccc(C(O)(Cn2cncc2C#N)C2(Cl)CC2)cc1C1(C(F)(F)F)CC1 (stereo not shown) , state its measured LogP.
Out: 3.27^[a]
